# reported growth inhibition; entries follow
assay: NCI Yeast Anticancer Drug Screen. Data for the mec2-1 strain (AID 157); conditions: S. cerevisiae mec2-1 strain, at 50.0 µM, stronger effect = higher value
About 79,000 compounds went through this panel and 15% of them were active in at least one assay; those are over-represented in the sample as a whole. Active and inactive are the calls of the source. Rule as the data show it: active = growth inhibition above about 70%; inactive = the rest.

[[record]]
compound = "Cc1ccc(SCC(CF)OC(C)n2cnc3c(=O)[nH]c(N)nc32)cc1 (configuration not stated)"
meas_value = "6.1% (inactive)"

[[record]]
compound = "Nc1ccccc1NC1CCN(Cc2ccccc2)CC1"
meas_value = "-3.35% (inactive)"

[[record]]
compound = "CCOC(=O)C(CCCOC1CCCCO1)(C(=O)OCC)c1ccccc1 (configuration not stated)"
meas_value = "-0.1% (inactive)"

[[record]]
compound = "O=C(O)c1cccc(N=Nc2ccccc2)c1O"
meas_value = "-12.4% (inactive)"

[[record]]
compound = "CC(=O)N(C)N=Nc1ccc(Cl)cc1"
meas_value = "11.7% (inactive)"


Which growth inhibition value is on record for Cc1c(C#N)c(=N)oc2ccccc12 ?
7.35% (inactive)

Another: O=C(CC(=O)C(F)(F)F)Nc1cccc2ccccc12
-3.1% (inactive)

====

test: NCI Yeast Anticancer Drug Screen. Data for the rad50 strain (AID 155);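 also: 0% = growth of vehicle-only cultures of the same strain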; details: S. cerevisiae rad50 strain growth inhibition; at 50.0 µM; stronger effect = higher value
About 79,000 compounds went through this panel and 15% of them were active in at least one assay; those are over-represented in the sample as a whole.
# reported growth inhibition; entries follow
Respond with the bare value in %.

[[record]]
compound = "C=CCNC(=S)NC=C(C(N)=O)C(N)=O"
meas_value = -25.9

[[record]]
compound = "O=C1C2=Cc3ccccc3OC2(O)Oc2ccc(O)cc21 (configuration not stated)"
meas_value = 8.5

[[record]]
compound = "N#C/C(C(=O)NCc1ccccc1)=C(/N)N1CCCC1"
meas_value = -4.95

[[record]]
compound = "CC1c2c(cc(=O)n(C)c2O)C(=O)N1C (configuration not stated)"
meas_value = 2.15

[[record]]
compound = "O=C1CCC(N2C(=O)C3C4CCC(CC4)C3C2=O)C(=O)N1 (configuration not stated)"
meas_value = 2.75


Which growth inhibition value is on record for COc1ccc(/C(=C/n2ccnc2)C(O)c2ccc(OC)c(OC)c2)cc1OC (configuration not stated) ?
-16.5

Another: CC1(c2ccccc2)OCC(c2ccccc2)O1 (configuration not stated)
-9.2

====

# reported growth inhibition; entries follow
test: NCI Yeast Anticancer Drug Screen. Data for the mec2-1 strain (AID 157); details: S. cerevisiae mec2-1 strain, at 50.0 µM, stronger effect = higher value
This is part of a sample that, as a whole, favours compounds with a hit. Of some 79,000 tested, about 15% had one in any assay.
Respond with the bare value in %.

Below, each entry is followed by its recorded growth inhibition result.
[[record]]
compound = "CCOC(=O)NC(CC)c1ccc2oc3ccccc3c2c1 (configuration not stated)"
meas_value = 1.9

[[record]]
compound = "CCOC(=O)C1(C)CCC(C(=O)OC)C1=O (configuration not stated)"
meas_value = -31.1


Which growth inhibition value is on record for CS(=O)(=O)OC1COC(c2ccccc2)OC1C1OC(c2ccccc2)OCC1OS(C)(=O)=O (configuration not stated) ?
-3.85

Another: CN(C)CCCNc1ccc2nnn3c4ccc(O)cc4c(=O)c1c23
1.25

Another: NC(=O)c1[nH]c(COCCO)nc1N
-10.4

Another: CNC(=O)Nc1ccc(C(=O)OCC(C)C)cc1
8.7
